Attribute: cytotoxicity at 70.5 h
ASSAY_DETAILS: Human HepG2 cell viability assay in 384 well format
Format: toxicity, cell-based
Set-up: dose 125 nL, time 70.5 hour; concentration not given beside the values
PARTICULARS: HepG2 cells, read-out: Inhibition
PROPERTY_MEASURED: cytotoxicity at 70.5 h (%)

>>> measured_result("COc1c(C2CCCN2C(=O)c2cccnc2N(C)C)c(C)nn1C (configuration not stated)")
0.616
>>> measured_result("Cn1cccc1C(=O)NCc1cnc2n1CCN(c1ccccn1)C2")
-3.68
>>> measured_result("Cc1cccc(C(=O)NCCCN2CCN(c3ccccc3)CC2)c1")
7.06
>>> measured_result("Cc1noc(CN(C)CC(c2cccs2)N2CCOCC2)n1 (configuration not stated)")
-4.96
>>> measured_result("CCC[C@H]1CN(CCS(C)(=O)=O)C[C@@H]1NC(=O)Cn1cc(C)cn1")
-6.99
>>> measured_result("Cc1cc2cc(CNC(=O)c3cnn4c3OCCC4)ccc2[nH]1")
-1.4
>>> measured_result("COc1ncc(CN2CCC3(CCNC(=O)CC3)CC2)cn1")
4.98
>>> measured_result("Cc1ccc(-c2cn(C3CCN(C(=O)[C@H]4CCCO4)CC3)nn2)cc1")
-5.5
>>> measured_result("CC(=O)Nc1ncc(S(=O)(=O)Nc2ccc3c(c2)OCCO3)s1")
-7.83
>>> measured_result("COCCN1CCC2(COCCN(C(=O)Cc3cccs3)C2)C1 (configuration not stated)")
-5.29
>>> measured_result("Cc1cc(C2CCCN(C(=O)c3ccc(OCC4CC4)nc3)C2)n[nH]1 (configuration not stated)")
-4.64
>>> measured_result("O=C(c1sccc1C1CC1)N1CCCN(Cc2cscn2)CC1")
-0.238
>>> measured_result("CCNC(=O)NC1CCCN(c2ccc(C)cc2)C1=O (configuration not stated)")
0.44
>>> measured_result("COCc1nc(N2CCC(CCO)CC2)c2cnn(C)c2n1")
2.73
>>> measured_result("Cc1nc(N2CCCC2)nc2c1CCN(C(=O)C1CCC1)CC2")
-12.5
>>> measured_result("CN(Cc1ncc(C(C)(C)C)o1)CC1CCCN1c1cccnn1 (configuration not stated)")
23.4
>>> measured_result("Cn1ccc(C(=O)NCc2ccccc2CN2CCCC2)cc1=O")
16
>>> measured_result("O=C(CCc1nc(Cl)n[nH]1)N1CCC2(CCCNC2=O)C1 (configuration not stated)")
4.11
>>> measured_result("CCOC(=O)c1coc(N2CCC(C(O)CC(C)C)CC2)n1 (configuration not stated)")
-1.6
>>> measured_result("Cn1ccc(C(=O)N2CCc3[nH]nc(Nc4ccccc4)c3C2)n1")
1.75
>>> measured_result("c1cncc(CNc2ccc3nc(C4CCNCC4)nn3c2)c1")
-4.24
>>> measured_result("CCN1CCN(C(=O)c2ccn(C)c(=O)c2)CC1")
32.5

* * *

ASSAY_DETAILS: Human HepG2 cell viability assay in 384 well format
Format: toxicity, cell-based
Design: dose 125 nL, time 70.5 hour; concentration not given beside the values
PARTICULARS: HepG2 cells, read-out: Inhibition
PROPERTY_MEASURED: cytotoxicity at 70.5 h (%)

>>> measured_result("CN(c1ncc(S(N)(=O)=O)s1)C1CCc2ccccc21 (stereo not drawn)")
-1.27
>>> measured_result("Cc1ccc(Nc2nccc(C3CN(CC(N)=O)C3)n2)nc1")
-1.76
>>> measured_result("CSc1nccc(N2CCC3(CCCN(CCc4ccccc4)C3)C2)n1 (stereo not drawn)")
6.79
>>> measured_result("CCN1CCCC2(CCN(Cc3nnc(C4CC4)o3)C2)C1=O (stereo not drawn)")
0.731
>>> measured_result("CCn1cc(CNc2ccc(N(C)CCOC)cn2)cn1")
-2.51
>>> measured_result("COc1ccc(N(CCC(N)=O)C(=O)CSc2ccc(F)c(F)c2)cc1")
-12.7
>>> measured_result("O=C(CCC1CCCN(C(=O)CCc2ccc(F)c(F)c2)C1)NC1CC1 (stereo not drawn)")
-8.38
>>> measured_result("CC(C)C(C(=O)N1CCN(Cc2ccncc2)CC1)n1cncn1 (stereo not drawn)")
-9.68
>>> measured_result("Cc1cc(N2CCCCC2)nc(N(CCO)CCO)c1C#N")
-8.15
>>> measured_result("CCCc1cnc(C)nc1N1CCC2(CC1)CNC(=O)O2")
10.5
>>> measured_result("Cc1nn(C)c(C)c1CNCc1ccc(N2CCOCC2)nc1")
3.85
>>> measured_result("COCCN(C)CCN1CC2(CCN(C3CCOCC3)CC2)OC1=O")
20.5
>>> measured_result("Cc1ccc(F)cc1NC(=O)C1CCCN1C(=O)C(C)C (stereo not drawn)")
-5.39
>>> measured_result("CC(C)NC(=O)CC1CC2(CCN(S(C)(=O)=O)CC2)c2ccccc21 (stereo not drawn)")
3.25
>>> measured_result("CN(CCn1cnnc1)S(=O)(=O)c1ccc(C(F)(F)F)nc1")
-15.6
>>> measured_result("CNC(=O)COc1ccccc1CNC1CCc2nc(C)nn2C1 (stereo not drawn)")
-6.32
>>> measured_result("O=C(CC1CCCC1)NCCn1nc2ccccn2c1=O")
-2.13
>>> measured_result("Cc1ccc(CC(=O)N(C)CC2(O)CCN(c3ccccn3)C2)s1 (stereo not drawn)")
-6.87
